Measured values drawn from PubChem BioAssay (NCI) for this set.

# Run Description: NCI Yeast Anticancer Drug Screen. Data for the mlh1 rad18 strain (AID 175)
# Study Conditions: S. cerevisiae mlh1 rad18 strain growth inhibition; at 5.0 µM (retest, dose inferred, filed as 0.5); hits give high values
This is part of a sample that, as a whole, favours compounds with a hit. Of some 79,000 tested, about 15% had one in any assay.
Attribute: growth inhibition
Please reply with the bare figure in % and do not write the unit itself.

[
  {
    "Compound": "CCOC(=O)C1CSC(c2c(CO)cnc(C)c2O)N1 (configuration not stated)",
    "Readout Type": "growth inhibition",
    "U": "%",
    "Reported": 2
  }
]

Which growth inhibition is listed for `O=S(=O)(NC(=S)Nc1ccccc1)c1ccc(Br)cc1` ?
21

// query growth inhibition value for entry `Nc1ccc(S(=O)(=O)Nc2ccccc2)cc1`
0

Entry under review: `Cc1ccc(C(=O)/C=C/c2ccco2)c(C)c1` . Reported growth inhibition?
-20

Consider the compound `Oc1ccc(Br)cc1-c1nc2cc(Cl)c(Cl)cc2nc1-c1cc(Br)ccc1O` and give its measured growth inhibition.
48

Recorded growth inhibition for `NNC(=O)C(=O)N/N=C(/CCC(=O)NCCc1ccccc1)CC(=O)c1ccccc1` , please?
-2

May I ask what growth inhibition has been recorded for CC(=O)NC1CCCCC1CC1CCCCC1 (configuration not stated) ?
-125

Entry `CCCCCCCCC(N)CCCCCCCC` has what growth inhibition?
99

Using the record for `COc1ccc(C(c2ccc(C(C)C)cc(OC)c2=O)c2ccc(C(C)C)cc(OC)c2=O)cc1` , report its growth inhibition.
-4

----------
// values below are reported growth inhibition
# Run Description: NCI Yeast Anticancer Drug Screen. Data for the mec2-1 strain (AID 157)
# Study Conditions: S. cerevisiae mec2-1 strain, at 5.0 µM (retest, dose inferred, filed as 0.5), hits give high values
Compounds without any hit were thinned out: in the full panel of roughly 79,000, 15% have a hit.
Answer in %, number only, no unit symbol.

What measured growth inhibition goes with `O=C1Oc2ccccc2C(=O)/C1=C/N1C(=O)/C(=C/c2ccc([N+](=O)[O-])cc2)SC1=S` ?
-4

# get_value(readout='growth inhibition', item= `OCCc1cccc2ccc3ccccc3c12` )
-1

Query: growth inhibition; subject: `COc1ccccc1NC(=O)/C(=C\N1C(=O)/C(=C/c2cc(OC)c(OC)c(OC)c2)SC1=S)C(C)=O`
-12

# query: growth inhibition of entry `Nc1cc(F)cc(F)c1[N+](=O)[O-]`
4

Any idea what growth inhibition was measured for Cc1ccc(C)c(NC(=O)/C(=N\NC(N)=S)C(C#N)c2ccccc2)c1 (stereo unspecified) ?
6

Param item = CCOC(=O)C1SC(=Nc2ccc(Cl)cc2C)N=C1C (stereo unspecified) ; retrieve measured growth inhibition.
25

Give the measured growth inhibition of `CCc1ccccc1NC(=O)C(=O)CC(=O)c1ccc(Cl)s1` .
-2

I have this compound here, Cc1ccc(C2CC(c3cccc([N+](=O)[O-])c3)=Nc3ccccc3S2)cc1 (stereo unspecified) , and I need its recorded growth inhibition.
0

growth inhibition for `CC(=O)Nc1ccc(S(=O)(=O)N/N=C/c2cc(I)cc([N+](=O)[O-])c2O)cc1` ?
10

Name the reported growth inhibition value associated with the compound Cc1cccc(N2CCN(CC(O)COc3ccc4ccccc4c3)CC2)c1 (stereo unspecified)
13

// lookup growth inhibition for COc1cc2c(c(O)c1OC)-c1c(cc(OC)c(OC)c1OC)CC(C)C(C)C2 (stereo unspecified)
-23
